Catalogue of pIC50 values
Molecular target: human CRTH2 (Homo sapiens)
Sequence (Q9Y5Y4 whole entry): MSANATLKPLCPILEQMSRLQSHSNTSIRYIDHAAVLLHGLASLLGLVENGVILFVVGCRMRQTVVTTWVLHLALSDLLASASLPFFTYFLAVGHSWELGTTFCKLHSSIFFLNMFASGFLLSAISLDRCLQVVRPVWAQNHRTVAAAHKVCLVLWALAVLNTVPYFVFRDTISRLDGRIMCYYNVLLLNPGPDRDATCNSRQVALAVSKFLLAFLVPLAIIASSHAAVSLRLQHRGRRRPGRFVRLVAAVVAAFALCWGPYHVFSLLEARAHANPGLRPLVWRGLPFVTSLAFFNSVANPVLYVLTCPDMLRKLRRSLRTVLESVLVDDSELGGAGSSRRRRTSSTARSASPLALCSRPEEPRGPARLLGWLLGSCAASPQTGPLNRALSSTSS
Experiment: Human CRTH2 Receptor Binding Assay (whole cell, [3H]ramatroban competition)
Design: two mammalian expression vectors that harbored human CRTH2 and G-alpha16 cDNAs; expressed in transfected cells
Details: CHO-K1 cells expressing human CRTH2 and G-alpha16; 20 nM [3H]ramatroban; 1 hour, room temperature
pIC50: −log10 of the molar value.
outcome_measure: pIC50

- O=C(O)COc1cccc2c1CCCCC2NS(=O)(=O)c1ccc(-c2cccc(CCO)c2)cn1 (stereo not shown) [Example 37]: 7.77
- O=C(O)COc1cccc2c1CCCCC2NS(=O)(=O)c1cc(C(F)(F)F)cc(C(F)(F)F)c1 (single isomer, unassigned) [Example 45]: 5.83
- CN(C1CCCCc2c(OCC(=O)O)cccc21)S(=O)(=O)c1ccc(-c2ccccc2)cc1 (stereo not shown) [Example 12]: 6.12
- CC(C)c1cc(C(F)(F)F)cc(S(=O)(=O)NC2CCCCc3c(OCC(=O)O)cccc32)c1 (stereo not shown) [Example 43]: 6.53
- CN(C1CCCCc2c(OCC(=O)O)cccc21)S(=O)(=O)c1ccc(-c2cccc(S(C)(=O)=O)c2)cc1 (stereo not shown) [Example 30]: 6.72
- Cc1cc(-c2ccc(S(=O)(=O)NC3CCCCc4c(OCC(=O)O)cccc43)cc2)cc(C(C)(C)C)c1 (stereo not shown) [Example 21]: 7.46
- CN(C1CCCCc2c(OCC(=O)O)cccc21)S(=O)(=O)c1cc(S(C)(=O)=O)cc(S(C)(=O)=O)c1 (stereo not shown) [Example 11]: 7.48
